Data provenance is PubChem BioAssay (NCI).

Answer each item with its documented TGI.
- Tested on: OVCAR-4 ovarian
- Test summary: NCI tumour cell line growth inhibition, 48 h

Exercise: # get_value(readout='TGI', item= Cc1cc([N+](=O)[O-])ccc1Sc1c2ccccc2nc2cc(Cl)ccc12 )
Key: > 100 µM

Exercise: # get_value(readout='TGI', item= Nc1nc2c(ncn2C2CCC(CO)O2)c(=O)n1C(=O)c1ccccc1 (stereo unspecified) )
Key: > 100 µM

Exercise: # get_value(readout='TGI', item= COc1ccc2sc3cccc(NCCN(C)C)c3c(=O)c2c1 )
Key: 16.5 µM

Exercise: # get_value(readout='TGI', item= CN(C)CCCC1c2ccccc2Oc2ccc(C(F)(F)F)cc21 (stereo unspecified) )
Key: 28.3 µM

Exercise: # get_value(readout='TGI', item= CN1C(=O)CCC2[C@@H]3CC=C4C[C@@H](O)CC[C@]4(C)C3CC[C@@]21C (stereo partly specified) )
Key: > 100 µM

Now examine the next entry.
Exercise: # get_value(readout='TGI', item= C=C(C)C1CC/C(C)=C/CCC2(C)OC2CC/C(CO)=C\C1O (stereo unspecified) )
Key: > 100 µM

====

- System: SNB-75 CNS
- Test summary: NCI tumour cell line growth inhibition, 48 h
Readout name: TGI

Recorded TGI, per entry:
Exercise: Test system SNB-75 CNS; read-out TGI; what value for O=C(c1cc2ccccc2[nH]1)N1C2CCC1CN(CCOC(c1ccc(F)cc1)c1ccc(F)cc1)CC2 (configuration not stated) ?
Key: > 100 µM

Exercise: Test system SNB-75 CNS; read-out TGI; what value for COC1OC(CO)C(O)C(OC(C)=O)C1NC(=O)N(CCCl)N=O (configuration not stated) ?
Key: > 100 µM

Exercise: Test system SNB-75 CNS; read-out TGI; what value for COc1cc(C(=O)/C=C/c2ccc(OCCSCCCCCCCCCCSCCOc3ccc(/C=C/C(=O)c4cc(OC)c(OC)c(OC)c4)cc3)cc2)cc(OC)c1OC ?
Key: > 100 µM

Exercise: Test system SNB-75 CNS; read-out TGI; what value for CCOC(=O)CCC(NC(=O)Cc1ccc(Nc2nc3ccccc3nc2-c2cccs2)cc1)C(=O)OCC (configuration not stated) ?
Key: > 100 µM

Exercise: Test system SNB-75 CNS; read-out TGI; what value for COC(=O)CCC(C)[C@H]1CCC2C3C(C[C@H](OC(C)=O)[C@@]21C)[C@@]1(C)CCC2(C[C@H]1C[C@H]3OC(C)=O)OOC1(CCCC1)OO2 (some centres not stated) ?
Key: > 100 µM

Could I get TGI for every one of these entries?
1. N=C(N)c1ccc(-c2ccc(-c3ccc(Cl)cc3Cl)o2)nc1
2. c1cnn(C23C4C5C6C4C2C6C53)c1 (configuration not stated)
3. O=C(c1ccco1)c1nc2cc(C(F)(F)F)ccc2nc1C(F)(F)F
4. CCOC(=O)c1ccccc1OC(=O)NNc1ccccc1
5. Cc1cccc(-c2[nH]ncc2-c2ccc3ncccc3n2)n1
6. Nc1c(C(=O)c2ccc(-c3cccnc3)cc2)cnn1-c1ccc(F)cc1
7. O=c1ccn(CC2(CO)CCCC2)c(=O)[nH]1

Key:
1. 2.78 µM
2. > 100 µM
3. 62.7 µM
4. > 100 µM
5. > 23.9 µM
6. > 25 µM
7. > 100 µM
